Just for reference, paper PMC7425896 is where these values come from.

- target: αSyn fibrils (Homo sapiens, UniProt P37840)
- Construct: made in house
- assaySummary: Binding of peptides and Surfen to preformed αSyn fibrils, sedimentation and reversed phase chromatography
- experimentalParameters: ligand 200 μM, αSyn fibrils 100 μM, 1h RT, PBS; sedimentation, reversed phase chromatography
- Procedure: Hsc70-derived peptides, the […] peptide or the Surfen molecule (0 or 200 μM) were incubated with or without αSyn fibrils (100 μM) for 1h at RT in PBS. The samples were centrifuged for 30 min in a […] tabletop centrifuge (Eppendorf) at 20,000g and 20°C. The pellets were first washed by 100 μL of 0.1% TFA and then dissolved for 30 min in 30 μL of pure TFA. […] The composition of each sample was assessed by phase reverse chromatography on a C18 column (Jupiter C18 300A from Phenomenex, Torrance, CA, USA). […]
No end group written: not given here.
propertyName: binding to αSyn fibrils (in words)

[[record]]
biopolymersequence = "VEDEKLQGKINDED [Hsc-2]"
result = "did not bind"

[[record]]
biopolymersequence = "GKFELTGIPPAPRGVPQIEVT [Hsc-8]"
result = "did not bind"

[[record]]
biopolymersequence = "LTGIPPAPRGVPQIE [Hsc-7]"
result = "did not bind"

[[record]]
biopolymersequence = "LSKEDIERMVQEAEKY [Hsc-1]"
result = "did not bind"

[[record]]
biopolymersequence = "GILNVSAVDKSTGKENKITITN [Hsc-10]"
result = "did bind"

[[record]]
biopolymersequence = "TKQTQTFTTYSDNQPGVLIQVYE [Hsc-6]"
result = "did bind"

[[record]]
biopolymersequence = "NMKATVEDEKLQGKINDEDKQKIL [Hsc-3]"
result = "did not bind"

[[record]]
biopolymersequence = "FTTYSDNQPGV [Hsc-5]"
result = "did not bind"


###

// values below are reported pKd
- target: αSyn fibrils (Homo sapiens)
- Construct: made in house
- assaySummary: Binding of peptides and Surfen to preformed αSyn fibrils, sedimentation and reversed phase chromatography
- experimentalParameters: peptide 0–200 μM, αSyn fibrils 100 μM; sedimentation, reversed phase chromatography
pKd: −log10 of the molar value. No end group written: not given here.
propertyName: pKd

[[record]]
biopolymersequence = "TKQTQTFTTYSDNQPGVLIQVYE [Hsc-6]"
target = "αSyn fibrils (Homo sapiens)"
result = "< 4.00"

[[record]]
biopolymersequence = "GILNVSAVDKSTGKENKITITN [Hsc-10]"
target = "αSyn fibrils (Homo sapiens)"
result = "< 4.00"


###

- assaySummary: Secondary structure content by far-UV circular dichroism
- Type: physicochemical
- experimentalParameters: far-UV CD, 20°C, deconvoluted with Dichroweb
No end group written: not given here.
Everything with Secondary structure composition β-strand lower than 10% is F; everything else, including exactly 10%, is T.

[[record]]
biopolymersequence = "GILNVSAVDKSTGKENKITITN [Hsc-10]"
labelclass = "T"

[[record]]
biopolymersequence = "LTGIPPAPRGVPQIE [Hsc-7]"
labelclass = "T"

[[record]]
biopolymersequence = "FTTYSDNQPGV [Hsc-5]"
labelclass = "T"

[[record]]
biopolymersequence = "NMKATVEDEKLQGKINDEDKQKIL [Hsc-3]"
labelclass = "F"

[[record]]
biopolymersequence = "LSKEDIERMVQEAEKY [Hsc-1]"
labelclass = "F"

[[record]]
biopolymersequence = "GKFELTGIPPAPRGVPQIEVT [Hsc-8]"
labelclass = "T"

[[record]]
biopolymersequence = "TKQTQTFTTYSDNQPGVLIQVYE [Hsc-6]"
labelclass = "T"

[[record]]
biopolymersequence = "VEDEKLQGKINDED [Hsc-2]"
labelclass = "T"

